# Lookup of reported pKi keyed by entry
Measurement Target: T1, iCAL36QDTRL
T1 chain: ANSRWQDTRL
Assay Explanation: fluorescence polarization competition
Just the number, please; pKi means minus log10 of the concentration in mol/L.

*Q* GET /values?readout=pKi&item= N2P1 PDZ1 (protein) RPRLCRLVRGEQGYGFHLHGEKGRRGQFIRRVEPGSPAEAAALRAGDRLVEVNGVNVEGETHHQVVQRIKAVEGQTRLLVVDQETD
*A* 5.51

*Q* Also N2P2 PDZ2 (protein) LRPRLCHLRKGPQGYGFNLHSDKSRPGQYIRSVDPGSPAARSGLRAQDRLIEVNGQNVEGLRHAEVVASIKAREDEARLLVVDPETD ?
*A* 5.96
